# Tested on: ERK1/2 (Thr202/Tyr204) phosphorylation in KYSE520 cells
# EXPERIMENT_NOTES: Cellular Phospho-p44/42 MAPK (Erk1/2) (Thr202/Tyr204) assay, In-Cell Western
# Format: cell-based
# PARTICULARS: Homo sapiens, KYSE-520; KYSE520 cells, 1 hour incubation, pERK signal normalized to GAPDH; single assay or mean of multiple assays; read-out: Biological Example 2 IC50
pIC50: −log10 of the molar value.
Label rule, in plain words: pIC50 of 6 and up is rule met, under 6 is rule not met.

>  <COMPOUND_STRUCTURE_STRING>
Cc1ccc2c(n1)CC1(CCN(c3ncc(Sc4ccnc(N)c4Cl)nn3)CC1)[C@H]2N

>  <ASSIGNED_CATEGORY>
rule met

$$$$
>  <COMPOUND_STRUCTURE_STRING>
COc1nccc(Sc2cnc(N3CCC4(CC3)Cc3ccccc3[C@H]4N)nn2)c1Cl

>  <ASSIGNED_CATEGORY>
rule met

$$$$
>  <COMPOUND_STRUCTURE_STRING>
N[C@@H]1c2ccccc2CC12CCN(c1ncc(Oc3ccccc3)nn1)CC2

>  <ASSIGNED_CATEGORY>
rule met

$$$$
>  <COMPOUND_STRUCTURE_STRING>
Cc1ccc2c(c1)CC1(CCN(c3ncc(Sc4ccnc(N)c4Cl)nn3)CC1)[C@H]2N

>  <ASSIGNED_CATEGORY>
rule met

$$$$
>  <COMPOUND_STRUCTURE_STRING>
N[C@@H]1c2ccccc2CC12CCN(c1ncc(-c3cccc(Cl)c3)nn1)CC2

>  <ASSIGNED_CATEGORY>
rule not met

$$$$
